- target or test system: T1, Human MuSK (R&D Systems, cat. 10189-MK, histidine tag) (human, UniProt O15146 24-495)
- T1 construct: Bought protein; also called human monomeric MuSK-6xhis; not shown: histidine tag (6xhis)
- T1 sequence: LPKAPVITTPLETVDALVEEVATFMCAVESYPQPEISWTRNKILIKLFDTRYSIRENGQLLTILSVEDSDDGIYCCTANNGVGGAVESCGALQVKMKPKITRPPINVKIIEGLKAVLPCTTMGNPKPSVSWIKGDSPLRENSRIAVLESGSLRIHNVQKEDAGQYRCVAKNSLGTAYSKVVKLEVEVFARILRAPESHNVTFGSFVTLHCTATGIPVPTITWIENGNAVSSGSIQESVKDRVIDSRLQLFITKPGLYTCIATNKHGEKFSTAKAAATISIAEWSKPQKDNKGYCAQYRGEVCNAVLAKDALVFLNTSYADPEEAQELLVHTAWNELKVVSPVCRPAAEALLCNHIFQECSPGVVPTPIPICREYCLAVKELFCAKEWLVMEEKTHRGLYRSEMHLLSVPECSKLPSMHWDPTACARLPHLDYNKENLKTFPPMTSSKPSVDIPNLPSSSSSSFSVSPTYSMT
- test protocol: SPR (Biacore), antibody captured on anti-hFc chip; 0.3125 nM; dissociation pH 5.5
Reported koff is given for each of the following binders.
Provide only the numeric value, understood in s⁻¹.

INPUT: Consider the binder shown here: 3D10a (antibody, human IgG1, kappa, L234A L235A, V domains shown) VH: EVQLVESGGGLVKPGGSLRLSCAASGFTFSASTMAWVRQAPGKGLEWVSSVSGDSHHIYYADSLKGRFTISRDNAKNSLYLQMNSLRAEDTAVYYCARERLLRLGVGFDSWGQGTLVTVSS VL: DIQMTQSPSSLSASVGDRVTITCRASQRISGFVNWYQQKPGKAPKLLIYAASTLQSGVPSRFSGSGSGTDFTLTISSLQPEDFATYYCQQSYSPLYTFGQGTKLEIKR What is its recorded koff?
OUTPUT: 6e-05

INPUT: And 4D3 (antibody, human IgG1, kappa, L234A L235A, V domains shown) VH: EVQLVESGGGLVKPGGSLRLSCAASGFTFSSYTMTWVRQAPGKGLEWVSSISSGGHYIYYTDSLKGRFTISRDNAKNSLYLQMNSLRAEDTAVYYCARERLLRLGVGFDFWGQGTLVTVSS VL: DIQMTQSPSSLSASVGDRVTITCRASQSISGYLNWYQQKPGKAPKLLIYAASTLQSGVPSRFSGSGSGTDFTLTISSLQPEDFATYYCQQSYSALYTFGQGTKLEIKR ?
OUTPUT: 0.00018

INPUT: Query 3D9b (antibody, human IgG1, kappa, L234A L235A, V domains shown) VH: EVQLVESGGGLVKPGGSLRLSCAASGFTFSTYTMHWVRQAPGKGLEWVSSISSRSAYKYYADSVKGRFTISRDNAKNSLYLQMNSLRAEDTAVYYCARDFFQLGPPRFDSWGQGTLVTVSS VL: DIQMTQSPSSLSASVGDRVTITCRASQRISSFLNWYQQKPGKAPKLLIYGASNLQSGVPSRFSGSGSGTDFTLTISSLQPEDFATYYCQQSYSPSYTFGQGTKLEIKR next
OUTPUT: 3e-05

Attention now turns to another entry.
INPUT: Need koff, item 3F6c (antibody, human IgG1, kappa, L234A L235A, V domains shown) VH: EVQLVESGGGLVKPGGSLRLSCAASGFTFSSYTMDWVRQAPGKGLEWVSSIGSNGDYIYYADSVRGRFTISRDNAKNSLYLQMNSLRAEDTAVYYCARGQLAVAGTHFDYWGQGTLVTVSS VL: DIQMTQSPSSLSASVGDRVTITCRASQKVNKYVNWYQQKPGKAPKLLIYAASTLQSGVPSRFSGSGSGTDFTLTISSLQPEDFATYYCQQSYSPLSTFGQGTKLEIKR
OUTPUT: 0.00023
